biological target: recombinant Leishmania DHCH1 (Leishmania major, UniProt Q4Q9F9); test: Inhibition of dehydrogenase; assay type: biochemical
Quantity Name: pKi
Scale note: pKi = -log10(concentration in M).

For the record Nc1nc(O)c2c(n1)NC[C@@H]1CN(c3ccc(C(=O)N[C@@H](CCC(=O)O)C(=O)O)cc3)C(=O)N21 [5,10-CO-THF] , what value of pKi is listed for recombinant Leishmania DHCH1 (Leishmania major, UniProt Q4Q9F9)?
6.98
